Hello, the source for this data is patent US20130123171A1, in case you need it.

- study-system: T1, human IGF-1 receptor (human, UniProt P08069 31-1367)
- T1 construct: whole, on cells
- test-name: SPA competition vs 125I-IGF-1, human IGF-1R membranes (Example 3)
Positions of bridges follow the written chain, without caps; N, C: chain ends. Chains are numbered I, II in the order given. No end group written: not given here.
Give measured % IGF-1 (in test) for each item. Keep answers brief.
One number for each entry, in %.

IGF-1 A:In (1-17)-IGF-1 B (18-30) (disulfide I:7-II:7 (inferred); not fully specified (bridges); ends not checked; also: C-terminal amide (chain not given here), my derivation) chain 1: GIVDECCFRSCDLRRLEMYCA-NH2 chain 2: FVNQHLCGSHLVEALYLVCGDRGFYFNKPT-NH2 ... 0.9
IGF-1 A:B (H5D10Y16L17) DPI (disulfide I:7-II:6 (inferred); not fully specified (bridges); ends not checked; also: C-terminal amide (chain not given here)) chain 1: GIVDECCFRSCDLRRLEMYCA-NH2 chain 2: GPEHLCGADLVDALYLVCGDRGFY-NH2 ... 11.2

Lookup: Would you mind telling me what % IGF-1 (in test) value was observed for IGF-1 A:IGF-1 B(1-8)-In (9-17)-IGF-1 B (18-30) (disulfide I:7-II:6 (inferred); not fully specified (bridges); ends not checked; also: C-terminal amide (chain not given here), my derivation) chain 1: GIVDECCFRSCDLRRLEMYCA-NH2 chain 2: GPETLCGSHLVEALYLVCGDRGFYFNKPT-NH2 ?
Found: 0.3
